Target: Olfr739 (Mus musculus)
Sequence (E9Q1P0 1-309): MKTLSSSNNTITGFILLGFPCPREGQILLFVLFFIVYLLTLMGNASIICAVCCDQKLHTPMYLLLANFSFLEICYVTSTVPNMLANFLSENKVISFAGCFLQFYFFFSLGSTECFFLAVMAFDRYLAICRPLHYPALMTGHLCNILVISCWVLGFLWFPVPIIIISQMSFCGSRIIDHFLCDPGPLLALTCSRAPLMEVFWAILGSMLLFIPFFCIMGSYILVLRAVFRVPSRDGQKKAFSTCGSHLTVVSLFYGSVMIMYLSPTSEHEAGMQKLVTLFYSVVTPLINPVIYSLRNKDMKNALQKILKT
Assay: HTRF cAMP assay in HEK293T
readout-name: pEC50
pEC50 (log units): -log10 of the concentration in mol/L.

Any idea what pEC50 was measured for c1ccc2[nH]ccc2c1 [compound 37, indole] ?
4.49

====

Target: UniProt:L7N1Y2
Sequence (L7N1Y2 1-311): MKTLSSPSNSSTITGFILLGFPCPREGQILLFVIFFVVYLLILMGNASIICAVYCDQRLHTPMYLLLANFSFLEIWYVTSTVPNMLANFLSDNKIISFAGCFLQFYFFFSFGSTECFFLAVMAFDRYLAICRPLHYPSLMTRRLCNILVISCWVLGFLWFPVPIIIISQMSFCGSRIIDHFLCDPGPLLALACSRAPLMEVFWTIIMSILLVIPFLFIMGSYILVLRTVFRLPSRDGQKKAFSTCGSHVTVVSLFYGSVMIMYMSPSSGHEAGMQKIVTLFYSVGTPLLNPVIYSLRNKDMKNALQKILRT
Assay: HTRF cAMP assay in HEK293T
Format: cell-based
readout-name: EC50
Include the unit after the number when you answer.

Any idea what EC50 was measured for c1ccc2[nH]ccc2c1 ?
80 nM

====

Target: Olfr748 (Mus musculus)
Sequence (E9Q9Z0 1-307): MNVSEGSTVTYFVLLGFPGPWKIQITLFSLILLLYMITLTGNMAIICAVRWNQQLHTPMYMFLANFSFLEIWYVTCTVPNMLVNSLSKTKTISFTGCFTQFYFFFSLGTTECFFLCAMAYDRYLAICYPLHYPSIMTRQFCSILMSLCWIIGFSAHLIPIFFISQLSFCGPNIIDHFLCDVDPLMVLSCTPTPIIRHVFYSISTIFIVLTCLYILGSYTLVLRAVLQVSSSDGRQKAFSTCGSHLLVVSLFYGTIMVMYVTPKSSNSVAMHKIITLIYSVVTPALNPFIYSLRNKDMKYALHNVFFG
Assay: HTRF cAMP assay in HEK293T
readout-name: EC50 (µM)
The reply should contain only the number, in µM.

Any idea what EC50 was measured for c1ccc2[nH]ccc2c1 [compound 37, indole] ?
81
